Field: RLU. Provide a value for each of the binders that follow.
# TARGET UNDER TEST: T1, human CD71 extracellular domain (human, UniProt P02786 89-760)
# T1 construct: also called hCD71; CD71-ECD
# T1 sequence (P02786 89-760): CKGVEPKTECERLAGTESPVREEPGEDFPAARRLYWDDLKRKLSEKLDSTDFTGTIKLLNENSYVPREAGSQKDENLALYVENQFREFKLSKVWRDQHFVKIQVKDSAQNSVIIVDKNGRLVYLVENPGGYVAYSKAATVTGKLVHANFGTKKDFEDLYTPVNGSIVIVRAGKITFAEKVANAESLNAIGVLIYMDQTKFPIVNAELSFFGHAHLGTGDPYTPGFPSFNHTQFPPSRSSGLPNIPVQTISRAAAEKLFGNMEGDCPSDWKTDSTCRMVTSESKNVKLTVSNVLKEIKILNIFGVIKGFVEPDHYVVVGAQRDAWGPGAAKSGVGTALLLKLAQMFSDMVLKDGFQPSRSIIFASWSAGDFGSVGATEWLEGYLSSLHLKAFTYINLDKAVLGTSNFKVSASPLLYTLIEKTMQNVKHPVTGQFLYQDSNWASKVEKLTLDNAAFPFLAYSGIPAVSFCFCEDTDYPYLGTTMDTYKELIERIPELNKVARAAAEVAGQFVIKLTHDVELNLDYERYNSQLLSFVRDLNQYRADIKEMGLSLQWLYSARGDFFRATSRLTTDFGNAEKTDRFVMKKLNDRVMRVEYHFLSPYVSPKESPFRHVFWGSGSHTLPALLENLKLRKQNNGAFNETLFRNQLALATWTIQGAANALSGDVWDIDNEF
# PROTOCOL: primary ELISA; note: test concentration or dose not given here
// units = RLU; emit number, no label

Item: CD71-binding FN3 domain SEQ ID NO 363 (designed binder) MLPAPKNLVVSRVTEDSARLSWTAPDAAFDSFFIGYLEPQPPGEAIDLWVPGSERSYDLTGLKPGTEYNVTIQGVKGGFPSLPLSAIFTT | RLU: 4.18e+06

For record CD71-binding FN3 domain SEQ ID NO 425 (designed binder) MLPAPKNLVVSRVTEDSARLSWTAPDAAFDSFFIGYLEPQPPGEAIGLLVPGSERSYDLTGLKPGTEYNVTIQGVKGGFPSNPLSAIFTT the listed RLU is 4.44e+06

Quick note, RLU for CD71-binding FN3 domain SEQ ID NO 418 (designed binder) MLPAPKNLVVSRVTEDSARLSWTAPDAAFDSFEIAYFENSYYGEAIVLTVPGSERSYDLTGLKPGTEYAVYIGGVKGGSWSNPLSAISTT landed at 1.95e+06

Sample CD71-binding FN3 domain SEQ ID NO 348 (designed binder) MLPAPKNLVVSRVTEDSARLSWTAPDAAFDSFEISYFENTWYGEAIVLTVPGSERSYDLTGLKPGTEYVVWIGGVKGGLWSKPLSAIFTT ; RLU observed: 1.83e+06

Data origin: patent US20260151494A1
